Recorded values, source patent US7632829B2.

Kindly state pIC50 for each of the entries shown.
Molecular target: human chemokine receptor 2 isoform B (Homo sapiens)
Sequence (P41597 1-360 isoform P41597-2): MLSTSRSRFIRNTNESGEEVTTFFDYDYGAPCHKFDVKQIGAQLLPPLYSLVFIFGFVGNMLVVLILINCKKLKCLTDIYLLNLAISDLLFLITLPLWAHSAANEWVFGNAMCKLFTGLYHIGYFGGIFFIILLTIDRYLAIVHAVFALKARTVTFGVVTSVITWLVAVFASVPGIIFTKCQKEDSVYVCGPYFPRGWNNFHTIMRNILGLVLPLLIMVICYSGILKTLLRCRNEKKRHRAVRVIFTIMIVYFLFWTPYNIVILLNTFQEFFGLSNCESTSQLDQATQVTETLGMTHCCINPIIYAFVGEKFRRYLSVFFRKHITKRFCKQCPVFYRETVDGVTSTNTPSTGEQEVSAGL
Assay: Calcium mobilization assay (FLIPR, CHOK1-CCR2B-A5 cells, 20 nM MCP-1)
Settings: Ca mobilisation assay, CCR2, antagonist activity vs 20 nM MCP-1
Answers are plain numbers, as −log10 of the molar value.

Kindly give each listed record's pIC50.
1. CC1CCN(CCCCN2CCN(C(=O)/C=C/c3ccc(Cl)c(Cl)c3)CCC2=O)CC1O (racemic)
2. C[C@@]1(CO)CCN(CCCN2CCN(C(=O)/C=C/c3ccc(Cl)c(Cl)c3)CCC2=O)C[C@H]1O (racemic)
3. COCC1C(O)CCCN1CCCCN1CCN(C(=O)/C=C/c2ccc(Cl)c(Cl)c2)CCC1=O (racemic)
4. O=C(/C=C/c1ccc(Cl)c(Cl)c1)N1CCC(=O)N(CCCN2CCCC2)CC1

result:
6.74
7.26
6.69
6.48
